target: T1, Anti-CD28 Fab (SEQ ID NOs: 696, 697); test: phage binding ELISA; biotinylated anti-CD28 Fab on neutravidin plate, bound phage detected with anti-M13 HRP;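 note: crude supernatants of clonal phage screened, wells pretreated with blocking buffer with or without CD28 antigen before brief phage incubation, washed, then bound phage detected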
T1 construct: In the phage ELISA the Fab was biotinylated and captured on neutravidin coated plates
T1 sequence (VH, as listed by the source, chain 1 of 2): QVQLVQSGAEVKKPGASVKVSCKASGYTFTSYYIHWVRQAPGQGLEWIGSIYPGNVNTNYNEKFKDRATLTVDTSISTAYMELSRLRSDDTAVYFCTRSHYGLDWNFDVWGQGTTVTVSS
T1 sequence (VL, as listed by the source, chain 2 of 2): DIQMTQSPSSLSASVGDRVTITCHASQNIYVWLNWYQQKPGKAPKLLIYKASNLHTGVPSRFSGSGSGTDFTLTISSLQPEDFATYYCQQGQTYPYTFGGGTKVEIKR
Where no end group is shown, it is not given here.
Reported Anti-CD28 Fab signal is given for each of the following binders.
Please reply with the value in numeric form only.

Please report Anti-CD28 Fab signal for the following binder: YCEGHTPEYMQKCL [Phage-568]
2.27

Please report Anti-CD28 Fab signal for the following binder: YCEGHLPMYMEKCL (cysteine pairing not given here; also: displayed on phage by fusion to pIII, pIII and linker sequence not given here) [Phage-575]
2.25

Please report Anti-CD28 Fab signal for the following binder: YCEGHSQEYMSKCL (cysteine pairing not given here; also: displayed on phage by fusion to pIII, pIII and linker sequence not given here) [Phage-573]
2.26
